Source of measurements: the supplement of paper PMC7877785

experiment: self-splicing fitness, log relative to wild type (ln ratio); higher = more splicing; Tetrahymena group I intron in knt gene, E. coli kanamycin selection, DiMSum; sequences stand for … in CUCUCU…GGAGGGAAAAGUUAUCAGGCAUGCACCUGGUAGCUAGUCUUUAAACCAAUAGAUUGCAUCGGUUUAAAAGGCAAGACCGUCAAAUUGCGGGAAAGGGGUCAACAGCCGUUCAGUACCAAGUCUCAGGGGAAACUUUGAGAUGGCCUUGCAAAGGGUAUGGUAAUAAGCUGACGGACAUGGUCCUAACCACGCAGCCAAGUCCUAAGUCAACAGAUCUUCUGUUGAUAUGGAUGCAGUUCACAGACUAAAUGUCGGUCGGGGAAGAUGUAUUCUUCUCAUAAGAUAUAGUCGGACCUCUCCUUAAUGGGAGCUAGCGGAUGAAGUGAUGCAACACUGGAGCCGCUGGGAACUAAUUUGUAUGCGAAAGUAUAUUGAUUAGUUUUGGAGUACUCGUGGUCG; settings: 37 °C;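 note: selection with 25 µg/mL kanamycin versus none on LB agar overnight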

{"macromolecule.sequence": "GGACAGCAAUAUUACGUUCG", "self-splicing fitness (ln)": 0.0323}
{"macromolecule.sequence": "CCGGAGCAAUAUUACGCUUA", "self-splicing fitness (ln)": -3.19}
{"macromolecule.sequence": "AUCUAGCAAUAUUACGACAU", "self-splicing fitness (ln)": 0.273}
{"macromolecule.sequence": "CGUUAGCAAUAUUACGAAGU", "self-splicing fitness (ln)": -1.29}
{"macromolecule.sequence": "CCAGAGCAAUAUUACGCAUC", "self-splicing fitness (ln)": -1.99}
{"macromolecule.sequence": "AGACAGCAAUAUUACGACGA", "self-splicing fitness (ln)": -0.547}
{"macromolecule.sequence": "UUCGAGCAAUAUUACGUUCC", "self-splicing fitness (ln)": -1.19}
{"macromolecule.sequence": "AGGUAGCAAUAUUACGGAUA", "self-splicing fitness (ln)": -1.6}
{"macromolecule.sequence": "CGUUAGCAAUAUUACGUGGG", "self-splicing fitness (ln)": -1.79}
{"macromolecule.sequence": "CGUCAGCAAUAUUACGAUGA", "self-splicing fitness (ln)": 0.0314}
{"macromolecule.sequence": "ACUGAGCAAUAUUACGCGCG", "self-splicing fitness (ln)": -0.367}
{"macromolecule.sequence": "GGACAGCAAUAUUACGCGAU", "self-splicing fitness (ln)": -2.52}
{"macromolecule.sequence": "AAGGAGCAAUAUUACGCCUA", "self-splicing fitness (ln)": -1.35}
{"macromolecule.sequence": "AAAAAGCAAUAUUACGACCA", "self-splicing fitness (ln)": -0.734}
{"macromolecule.sequence": "GCUAAGCAAUAUUACGGUCU", "self-splicing fitness (ln)": -1.06}
{"macromolecule.sequence": "AGAAAGCAAUAUUACGCGGA", "self-splicing fitness (ln)": -0.649}
{"macromolecule.sequence": "UACCAGCAAUAUUACGGAUU", "self-splicing fitness (ln)": -0.93}
{"macromolecule.sequence": "AUAAAGCAAUAUUACGUUUU", "self-splicing fitness (ln)": -1.11}
{"macromolecule.sequence": "CCCGAGCAAUAUUACGGCUG", "self-splicing fitness (ln)": -2.72}
{"macromolecule.sequence": "CCUGAGCAAUAUUACGUGAA", "self-splicing fitness (ln)": -2.83}
{"macromolecule.sequence": "GACCAGCAAUAUUACGUAGC", "self-splicing fitness (ln)": -0.496}
{"macromolecule.sequence": "GCCUAGCAAUAUUACGUGAG", "self-splicing fitness (ln)": -0.757}
{"macromolecule.sequence": "CUACAGCAAUAUUACGGGAU", "self-splicing fitness (ln)": -2.99}
{"macromolecule.sequence": "UUCCAGCAAUAUUACGCCUG", "self-splicing fitness (ln)": -2.35}
{"macromolecule.sequence": "CCCAAGCAAUAUUACGCCCA", "self-splicing fitness (ln)": -2.46}
{"macromolecule.sequence": "UAACAGCAAUAUUACGUAAC", "self-splicing fitness (ln)": -1.62}
{"macromolecule.sequence": "UGAAAGCAAUAUUACGUAGC", "self-splicing fitness (ln)": -1.5}
